- Assay comment: Half life in Sprague-Dawley rat at 100 ug/kg, po
- Format: ADME, organism-based
- Experimental setup: in vivo, 0.1 mg/kg
Metric: half-life (min)
Give your result in min as a bare value.

Query: half-life; subject: CCC(O)(/C=C/c1ccc(C(CC)(CC)c2ccc(-c3ccc(CC(=O)O)cn3)c(C)c2)cc1C)CC
1060

----------
- Assay comment: Half life in Sprague-Dawley rat at 100 ug/kg, iv
- Type: ADME, organism-based
- Experimental setup: in vivo, 0.1 mg/kg
Metric: half-life

Query: half-life; subject: CCC(O)(/C=C/c1ccc(C(CC)(CC)c2ccc(-c3ccc(CC(=O)O)cn3)c(C)c2)cc1C)CC
510 min

----------
- Assay comment: Volume of distribution at steady state in Sprague-Dawley rat at 100 ug/kg, iv
- Assay type: ADME, organism-based
- Experimental setup: in vivo, 0.1 mg/kg, read-out: Vdss
Metric: Vd (L/kg)
Give your result in L/kg as a bare value.

Query: Vd; subject: CCC(O)(/C=C/c1ccc(C(CC)(CC)c2ccc(-c3ccc(CC(=O)O)cn3)c(C)c2)cc1C)CC
0.99

----------
- Assay comment: Mean residence time in Sprague-Dawley rat at 100 ug/kg, po
- Assay type: ADME, organism-based
- Experimental setup: in vivo, 0.1 mg/kg
Metric: MRT
Please answer using a numeric value trailed by its unit.

Query: MRT; subject: CCC(O)(/C=C/c1ccc(C(CC)(CC)c2ccc(-c3ccc(CC(=O)O)cn3)c(C)c2)cc1C)CC
28.3 h

----------
- Assay comment: Cmax in Sprague-Dawley rat at 100 ug/kg, po
- Assay type: ADME, organism-based
- Design: dose 100 ug/kg, route oral
- Experimental setup: in vivo, 0.1 mg/kg
Metric: Cmax (ng/mL)
Give your result in ng/mL as a bare value.

Query: Cmax; subject: CCC(O)(/C=C/c1ccc(C(CC)(CC)c2ccc(-c3ccc(CC(=O)O)cn3)c(C)c2)cc1C)CC
54

----------
- Assay comment: Total clearance in Sprague-Dawley rat at 100 ug/kg, iv
- Format: ADME, organism-based
- Experimental setup: in vivo, 0.1 mg/kg
Metric: clearance (mL/min/kg)
Give your result in mL/min/kg as a bare value.

Query: clearance; subject: CCC(O)(/C=C/c1ccc(C(CC)(CC)c2ccc(-c3ccc(CC(=O)O)cn3)c(C)c2)cc1C)CC
1.51

----------
- Assay comment: AUC (infinity) in Sprague-Dawley rat at 100 ug/kg, po
- Format: ADME, organism-based
- Design: dose 100 ug/kg, time infinity, route oral
- Experimental setup: plasma, 0.1 mg/kg
Metric: AUC(0-inf)
Please answer using a numeric value trailed by its unit.

Query: AUC(0-inf); subject: CCC(O)(/C=C/c1ccc(C(CC)(CC)c2ccc(-c3ccc(CC(=O)O)cn3)c(C)c2)cc1C)CC
1650 ng·h/mL
